Tested on: MOLT-4
Method description: NCI tumour cell line growth inhibition, 48 h
The source made the active and inactive calls. Cut-off read from the data, not from the text of the source: active = GI50 up to about 1.1 µM and inactive = higher.
Answer each item with its documented GI50.

# map each molecule to its GI50
1. CC(C)(C)NNC(=O)/C(=C/c1ccc([N+](=O)[O-])cc1)NC(=O)c1ccccc1
2. CCOC(=O)C(=CNc1ccc(N(C2=NCC(C)S2)c2ccc(F)c(Cl)c2)cc1)C(=O)OCC (stereo not given)
3. CN(C)/C=N/S(=O)(=O)c1nn2c(C=O)c(-c3ccccc3)nc2s1
4. c1ccc2c(CC3NCCN3)cccc2c1
5. O=C(O)c1cccc(Nc2c(C(=O)O)cccc2[N+](=O)[O-])c1

41.3 µM (inactive)
19.1 µM (inactive)
3.21 µM (inactive)
> 100 µM (inactive)
> 100 µM (inactive)

###

Test system: PC-3
Method description: NCI tumour cell line growth inhibition, 48 h
The source made the active and inactive calls. Rule as the data show it: active = GI50 up to about 1.1 µM and inactive = higher.
One label from this list, please: active, inactive

Examples from the recorded data:
# Molecule, Label class
records = [
    ("COc1ccc2c(c1)Cc1cc(/N=[N+](\\[O-])c3ccc4c(c3)Cc3cc(OC)ccc3-4)ccc1-2", "inactive"),
    ("S=c1[nH]n2c(CCCCCCCCc3nnc4sc(=S)[nH]n34)nnc2s1", "inactive"),
    ("Cc1ccc2c(c1)C1(C)OC(C=CC1=O)O2 (stereo unspecified)", "active"),
]

Query: recorded result category for CCOP(=O)(O)CC1OC(CO)C(O)C1O (stereo unspecified) in this test
inactive

###

Tested on: DMS-114
Method description: NCI tumour cell line growth inhibition, 48 h
The source made the active and inactive calls. Cut-off read from the data, not from the text of the source: active = GI50 up to about 1.1 µM and inactive = higher.
Result type: GI50

# Compound, GI50
rows = [
    ("CCN(CC)Cc1cc(Nc2c3ccccc3nc3c2[nH]c2ccccc23)ccc1O", "1.64 µM (inactive)"),
    ("Cc1ccc(S(=O)(=O)C2CC2(Cl)Cl)cc1 (stereo unspecified)", "19.7 µM (inactive)"),
]

# map each compound to its GI50
1. N#CC(C#N)=C1SCC(=O)CS1
2. O=C1C=CC(=O)c2cc(Sc3ccccc3)c(=O)c(Sc3ccccc3)cc21
3. CN(C)c1ccc2c(NCCCCCCNc3ccnc4cc(N(C)C)ccc34)ccnc2c1
4. CCOC(=O)[C@H]1Nc2ccc(O)cc2C2c3ccccc3CC21 (stereo partly specified)

1. > 100 µM (inactive)
2. 22.2 µM (inactive)
3. 6.75 µM (inactive)
4. 56.2 µM (inactive)

###

System: HOP-92
Method description: NCI tumour cell line growth inhibition, 48 h
Calls of active or inactive are those of the source. Cut-off read from the data, not from the text of the source: active = GI50 up to about 1.1 µM and inactive = higher.
Answer each item with its documented GI50.

# Compound, Measured target, Result
measured = [
    ("O=NN(CC1(O)OCC(O)C(O)C1O)C(Cc1c[nH]c2ccccc12)C(=O)O (stereo not given)", "HOP-92", "> 100 µM (inactive)"),
    ("Cc1ccc(S(=O)(=O)NNC2(NS(=O)(=O)c3ccc(Cl)cc3)C(Cl)=C(Cl)C(=O)c3ccccc32)cc1 (stereo not given)", "HOP-92", "17.3 µM (inactive)"),
    ("O=c1[nH]nc(Cc2ccc(Cl)cc2)n1/N=C/c1ccco1", "HOP-92", "93.8 µM (inactive)"),
    ("COC(=O)c1ccc(OCCn2nnc(C(=O)NN)c2C(=O)NN)cc1", "HOP-92", "> 100 µM (inactive)"),
]

# map each compound to its GI50
1. CC(C)(C)c1cc(Br)c(O)c(CN(Cc2cc(C(C)(C)C)cc(Br)c2O)C2CCCCC2)c1
2. O=C(CC1Sc2ccccc2NC1=O)Nc1ccccc1[N+](=O)[O-] (stereo not given)
3. CCCCCCCCCCCCNC(=O)NCC(OCC)OCC
4. CC(=O)N(CCCCNC(=O)C(F)(F)F)CCCNC(=O)C(F)(F)F
5. COc1ccc2c(c1)Cc1cc(/N=[N+](\[O-])c3ccc4c(c3)Cc3cc(OC)ccc3-4)ccc1-2

1. 15.5 µM (inactive)
2. > 100 µM (inactive)
3. > 10 µM (inactive)
4. > 100 µM (inactive)
5. 44.1 µM (inactive)

Enter reported GI50 observed with HOP-92 for FC1C2=C(SC1(F)F)C1CCC2C1 (stereo not given)
> 100 µM (inactive)
